Entries below carry reported pIC50 on Cyclin-dependent kinase 2 (Homo sapiens, UniProt P24941).
Numbers only, as −log10 of the molar value.

Q: Query (compound): COc1ccc2c(-c3ccnc(Nc4cccc(C(F)(F)F)c4)n3)cnn2n1 ; field requested: pIC50
Ans: 6.80

Q: Query (compound): Cc1ccc2c(-c3ccnc(Nc4ccc(C(F)(F)F)cc4)n3)cnn2n1 ; field requested: pIC50
Ans: 6.72

Q: Query (compound): FC(F)(F)c1cc(Nc2nccc(-c3cnn4ncccc34)n2)ccc1Cl ; field requested: pIC50
Ans: 8.00

Q: Query (compound): FC(F)(F)c1cccc(Nc2nccc(-c3cnn4nc(-c5ccccc5)ccc34)n2)c1 [GW819077X] ; field requested: pIC50
Ans: 5.60

Q: Query (compound): COc1cc(Nc2nccc(-c3cnn4ncccc34)n2)cc(C(F)(F)F)c1 ; field requested: pIC50
Ans: 8.00

Q: Query (compound): CCOc1ccc2c(-c3ccnc(Nc4cccc(C(F)(F)F)c4)n3)cnn2n1 [GW811761X] ; field requested: pIC50
Ans: 5.70

// for each compound in input: emit pIC50
1. Clc1cc(Cl)cc(Nc2nccc(-c3cnn4ncccc34)n2)c1
2. COc1ccc2c(-c3ccnc(Nc4ccc([N+](=O)[O-])cc4)n3)cnn2n1

Ans:
1. 6.51
2. 7.70

---

target_of_assay: Glycogen synthase kinase-3 beta (Homo sapiens, UniProt P49841)
Sequence (P49841 whole entry): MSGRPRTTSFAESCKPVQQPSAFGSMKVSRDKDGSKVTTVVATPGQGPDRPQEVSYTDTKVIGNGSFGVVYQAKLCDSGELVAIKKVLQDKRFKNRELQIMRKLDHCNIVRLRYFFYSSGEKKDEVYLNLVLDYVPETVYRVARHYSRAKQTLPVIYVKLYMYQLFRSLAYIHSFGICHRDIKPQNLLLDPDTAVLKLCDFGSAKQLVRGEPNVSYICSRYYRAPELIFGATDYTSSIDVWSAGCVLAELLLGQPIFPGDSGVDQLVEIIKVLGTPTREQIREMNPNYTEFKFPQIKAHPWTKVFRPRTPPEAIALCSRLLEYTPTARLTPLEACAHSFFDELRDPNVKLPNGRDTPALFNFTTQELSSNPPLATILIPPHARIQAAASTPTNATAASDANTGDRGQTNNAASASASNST
Please use T for IC50 under 50 nM and F for everything else, ties included.

Reference set, count: 8
Q: Just wondering, is IC50 of CCOc1ccc2c(-c3ccnc(Nc4cc(OC)cc(C(F)(F)F)c4)n3)cnn2n1 [GW807982X] below 50 nM?
Ans: F

Q: Just wondering, is IC50 of CC(C)c1ccc(Nc2nccc(-c3cnn4ncccc34)n2)cc1 [GW805758X] below 50 nM?
Ans: T

Q: Just wondering, is IC50 of Fc1ccc(Nc2nccc(-c3c(-c4ccc(C(F)(F)F)cc4)nn4ncccc34)n2)cc1F [GW828529X] below 50 nM?
Ans: F

Q: Just wondering, is IC50 of FC(F)(F)c1cccc(-c2nn3ncccc3c2-c2ccnc(Nc3ccc(Cl)c(C(F)(F)F)c3)n2)c1 below 50 nM?
Ans: F

Q: Just wondering, is IC50 of Fc1ccc(-c2nn3ncccc3c2-c2ccnc(Nc3ccc4c(c3)OCCO4)n2)cc1 [GW827099X] below 50 nM?
Ans: T

Q: Just wondering, is IC50 of COc1ccc(Nc2nccc(-c3cnn4ncccc34)n2)cc1OC [PYRAZOLOPYRIDAZINE 2] below 50 nM?
Ans: T

Q: Just wondering, is IC50 of FC(F)(F)c1cccc(-c2nn3ncccc3c2-c2ccnc(Nc3ccccc3)n2)c1 below 50 nM?
Ans: F

Q: Just wondering, is IC50 of Cc1ccc2c(-c3ccnc(Nc4ccccc4)n3)c(-c3ccc(F)cc3)nn2n1 [GW833373X] below 50 nM?
Ans: T

Next:
Q: Just wondering, is IC50 of FC(F)(F)c1ccc(-c2nn3ncccc3c2-c2ccnc(Nc3cccc(C(F)(F)F)c3)n2)cc1 below 50 nM?
Ans: F

Q: Just wondering, is IC50 of CCOc1ccc2c(-c3ccnc(Nc4cccc(C(F)(F)F)c4)n3)cnn2n1 [GW811761X] below 50 nM?
Ans: F

Q: Just wondering, is IC50 of c1ccc(Nc2nccc(-c3c(C4CCCCC4)nn4ncccc34)n2)cc1 below 50 nM?
Ans: F

Q: Just wondering, is IC50 of Cc1ccc2c(-c3ccnc(Nc4ccccc4)n3)c(-c3cccc(C(F)(F)F)c3)nn2n1 below 50 nM?
Ans: F

Q: Just wondering, is IC50 of Cc1ccc2c(-c3ccnc(Nc4cccc(C(F)(F)F)c4)n3)c(-c3ccc(F)cc3)nn2n1 below 50 nM?
Ans: T

Q: Just wondering, is IC50 of c1ccc(Nc2nccc(-c3c(-c4ccccc4)nn4ncccc34)n2)cc1 below 50 nM?
Ans: T

Q: Just wondering, is IC50 of Clc1ccc(Nc2nccc(-c3cnn4ncccc34)n2)cc1Cl below 50 nM?
Ans: T

Q: Just wondering, is IC50 of Fc1ccc(Nc2nccc(-c3c(C4CCCCC4)nn4ncccc34)n2)cc1F below 50 nM?
Ans: F

Q: Just wondering, is IC50 of Cc1ccc2c(-c3ccnc(Nc4ccc(F)c(F)c4)n3)c(-c3ccc(F)cc3)nn2n1 below 50 nM?
Ans: T

Q: Just wondering, is IC50 of Fc1ccc(Nc2nccc(-c3c(-c4ccc(Cl)cc4)nn4ncccc34)n2)cc1F below 50 nM?
Ans: F
